system: 991263-137-R1-J2-PDC complex spheroid viability; assay: Anticancer human tumor 991263-137-R1-J2-PDC patient-derived colon adenocarcinoma cell line growth inhibition [POLQ]; settings: second compound 0.1 µM; first compound 0.316 µM; stronger effect = lower value

>  <compound>
COc1cccc2c1C(=O)c1c(O)c3c(c(O)c1C2=O)CC(O)(C(=O)CO)CC3OC1CC(N)C(O)C(C)O1 (stereo not drawn) + Cc1cccc(N(C)C(=O)C2C(O)CCN2c2nc(C)cc(C(F)(F)F)c2C#N)c1

>  <viability, T/C (%)>
92.2

$$$$
>  <compound>
CCCS(=O)(=O)Nc1ccc(F)c(C(=O)c2c[nH]c3ncc(-c4ccc(Cl)cc4)cc23)c1F + COC1C(OC(N)=O)C(O)C(Oc2ccc3c(O)c(NC(=O)c4ccc(O)c(CC=C(C)C)c4)c(=O)oc3c2C)OC1(C)C

>  <viability, T/C (%)>
97.5

$$$$
>  <compound>
CC1COCCN1c1cc(C2(O)CC3CCC(C2)O3)c2cnn(-c3ccn[nH]3)c2n1 (stereo not drawn) + Cc1cccc(N(C)C(=O)C2C(O)CCN2c2nc(C)cc(C(F)(F)F)c2C#N)c1

>  <viability, T/C (%)>
82.3

$$$$

----------
test system: 991263-137-R1-J2-PDC complex spheroid viability; experiment: Anticancer human tumor 991263-137-R1-J2-PDC cell line growth inhibition [POLQ]; conditions: second compound 0.316 µM; first compound 1 µM; stronger effect = lower value;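 note: spheroids exposed to compounds for 7 days before readout; 100% = DMSO vehicle control viability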
Measured viability, T/C accompanies every entry in the list below.

>  <molecule>
COc1ccc([C@@H](O)c2cc(-c3ncnc4cc(N5CCOCC5)ccc34)c(F)cc2Cl)nn1 + Nc1ccc(C#CCN(C(=O)Cc2ncc(C(F)(F)F)cc2C(F)(F)F)c2ccc(F)cc2)nn1

>  <viability, T/C (%)>
98.2

$$$$
>  <molecule>
CC1COCCN1c1cc(-c2ccnn2C)c2ccnc(-c3ccn[nH]3)c2n1 (stereo not given) + Nc1ccc(C#CCN(C(=O)Cc2ncc(C(F)(F)F)cc2C(F)(F)F)c2ccc(F)cc2)nn1

>  <viability, T/C (%)>
53.7

$$$$
>  <molecule>
O=C(c1cc(Cc2n[nH]c(=O)c3ccccc23)ccc1F)N1CCN(C(=O)C2CC2)CC1 + Cc1cccc(N(C)C(=O)C2C(O)CCN2c2nc(C)cc(C(F)(F)F)c2C#N)c1

>  <viability, T/C (%)>
99.3

$$$$
>  <molecule>
C#Cc1c(F)ccc2cc(O)cc(-c3ncc4c(N5CC6CCC(C5)N6)nc(OCC56CCCN5CC(F)C6)nc4c3F)c12 (stereo not given) + Cc1cccc(N(C)C(=O)C2C(O)CCN2c2nc(C)cc(C(F)(F)F)c2C#N)c1

>  <viability, T/C (%)>
93.5

$$$$
>  <molecule>
CCc1cc2c(N3CCc4c(cc(Cn5ccnc5)cc4-c4cn(C)nc4C(F)(F)F)C3=O)cc(C)nc2c(OC)n1 + Nc1ccc(C#CCN(C(=O)Cc2ncc(C(F)(F)F)cc2C(F)(F)F)c2ccc(F)cc2)nn1

>  <viability, T/C (%)>
103

$$$$
>  <molecule>
CC1COCCN1c1cc(C2(S(C)(=N)=O)CC2)nc(-c2ccnc3[nH]ccc23)n1 (stereo not given) + COC1C(OC(N)=O)C(O)C(Oc2ccc3c(O)c(NC(=O)c4ccc(O)c(CC=C(C)C)c4)c(=O)oc3c2C)OC1(C)C

>  <viability, T/C (%)>
69.6

$$$$
>  <molecule>
COc1ccc([C@@H](O)c2cc(-c3ncnc4cc(N5CCOCC5)ccc34)c(F)cc2Cl)nn1 + Cc1cccc(N(C)C(=O)C2C(O)CCN2c2nc(C)cc(C(F)(F)F)c2C#N)c1

>  <viability, T/C (%)>
87.5

$$$$
>  <molecule>
C=CCn1c(=O)c2cnc(Nc3ccc(N4CCN(C)CC4)cc3)nc2n1-c1cccc(C(C)(C)O)n1 + Cc1cccc(N(C)C(=O)C2C(O)CCN2c2nc(C)cc(C(F)(F)F)c2C#N)c1

>  <viability, T/C (%)>
102

$$$$
>  <molecule>
COc1cccc2c1C(=O)c1c(O)c3c(c(O)c1C2=O)CC(O)(C(=O)CO)CC3OC1CC(N)C(O)C(C)O1 (stereo not given) + Cc1cccc(N(C)C(=O)C2C(O)CCN2c2nc(C)cc(C(F)(F)F)c2C#N)c1

>  <viability, T/C (%)>
57.2

$$$$
>  <molecule>
CNCc1ccc(-c2[nH]c3cc(F)cc4c3c2CCNC4=O)cc1 + Cc1cccc(N(C)C(=O)C2C(O)CCN2c2nc(C)cc(C(F)(F)F)c2C#N)c1

>  <viability, T/C (%)>
112

$$$$
>  <molecule>
CCCS(=O)(=O)Nc1ccc(F)c(C(=O)c2c[nH]c3ncc(-c4ccc(Cl)cc4)cc23)c1F + Cc1cccc(N(C)C(=O)C2C(O)CCN2c2nc(C)cc(C(F)(F)F)c2C#N)c1

>  <viability, T/C (%)>
97.5

$$$$
>  <molecule>
CCCS(=O)(=O)Nc1ccc(F)c(C(=O)c2c[nH]c3ncc(-c4ccc(Cl)cc4)cc23)c1F + COC1C(OC(N)=O)C(O)C(Oc2ccc3c(O)c(NC(=O)c4ccc(O)c(CC=C(C)C)c4)c(=O)oc3c2C)OC1(C)C

>  <viability, T/C (%)>
130

$$$$
>  <molecule>
CCc1c2c(nc3ccc(O)cc13)-c1cc3c(c(=O)n1C2)COC(=O)[C@]3(O)CC + Cc1cccc(N(C)C(=O)C2C(O)CCN2c2nc(C)cc(C(F)(F)F)c2C#N)c1

>  <viability, T/C (%)>
33.6

$$$$
>  <molecule>
CC(C)n1c(=O)n(C)c2cnc3cc(F)c(-c4ccc(OCCCN5CCCCC5)nc4)cc3c21 + COC1C(OC(N)=O)C(O)C(Oc2ccc3c(O)c(NC(=O)c4ccc(O)c(CC=C(C)C)c4)c(=O)oc3c2C)OC1(C)C

>  <viability, T/C (%)>
96.9

$$$$
>  <molecule>
C=CC(=O)N1CCN(c2nc(=O)n(-c3c(C)ccnc3C(C)C)c3nc(-c4c(O)cccc4F)c(F)cc23)C(C)C1 (stereo not given) + Nc1ccc(C#CCN(C(=O)Cc2ncc(C(F)(F)F)cc2C(F)(F)F)c2ccc(F)cc2)nn1

>  <viability, T/C (%)>
96.7

$$$$
